Origin of values: patent US8158621B2

Target entity: Syk kinase (Homo sapiens, UniProt P43405)
Experiment description: Syk kinase biochemical fluorescence polarization assay
Condition info: isolated Syk kinase, fluorescence polarization, 4 uM ATP
# IC50 annotations

Entry CC(=O)N(C)c1ccc(Nc2ncc(F)c(Nc3ccc4c(n3)NC(=O)C(C)(C)O4)n2)cc1 has what IC50?
> 10000 nM

Entry COc1cc(Nc2nc(Nc3ccc4cn[nH]c4c3)ncc2F)ccc1F has what IC50?
196 nM

Entry O=C1COc2ccc(Nc3nc(Nc4ccc(Cl)c(Cl)c4)ncc3F)nc2N1 has what IC50?
182 nM

Entry CNC(=O)COc1cccc(Nc2ncc(F)c(Nc3ccc4c(c3)C(O)CCC4)n2)c1 (racemic) has what IC50?
76 nM

Entry COc1ccc(Nc2nc(Nc3cc(C)c(O)c(Cl)c3)ncc2F)cc1Cl has what IC50?
235 nM
